The origin of these recorded values is patent US20230227442A1.

- Test system: CYP3A4
- Test Description: Human CYP 3A4 induction assay (mRNA, cryopreserved human hepatocytes)
- Assay type: in vitro ADME
- Condition Details: 2 uM test compound, 72 hours, percent of control (POC)
Recorded Endpoint: CYP3A4 mRNA Induct Hu 2 uM POC (%)

Sample answers from the record:
| Compound | Measurement Unit | Test Value |
| --- | --- | --- |
| COc1cc(COC(F)(F)F)c(F)cc1-n1c(=O)ccc2cc(S(=O)(=O)Nc3ccon3)c(F)cc21 (atropisomer, axis not shown; (P)) | % | 18.3 |
| COc1cc(O[C@@H](C)C(F)(F)F)c(F)cc1-n1c(=O)ccc2cc(S(=O)(=O)Nc3ccon3)ccc21 (atropisomer, axis not shown; (P)) | % | 2.6 |
| COc1cc(SC(F)(F)F)c(F)cc1-n1c(=O)cc(F)c2cc(S(=O)(=O)Nc3ccon3)ccc21 | % | 7.3 |
| COc1cc(SC(F)(F)F)c(F)cc1-n1c(=O)ccc2cc(S(=O)(=O)Nc3ncccn3)c(F)cc21 (atropisomer, axis not shown; (P)) | % | 17.4 |

I. COc1cc(OCC(F)(F)F)c(Cl)cc1-n1c(=O)ccc2cc(S(=O)(=O)Nc3ccon3)ccc21 (atropisomer, axis not shown; (P))
II. COc1cc(OCC(F)(F)F)c(F)cc1-n1c(=O)ccc2cc(S(=O)(=O)Nc3ccon3)c(F)cc21
// query Select the item whose CYP3A4 mRNA Induct Hu 2 uM POC value is smaller, choosing between I and II . Give the label under which the chosen entry appears.
// result II
(II: 3.6%, I: 7.7%)

I. COc1cc(OCC(F)(F)F)c(F)cc1-n1c(=O)ccc2cc(S(=O)(=O)Nc3ccon3)ccc21 (atropisomer, axis not shown; (P))
II. COc1cc(O[C@@H](C)C(F)(F)F)c(F)cc1-n1c(=O)ccc2cc(S(=O)(=O)Nc3ncccn3)ccc21 (atropisomer, axis not shown; (P))
III. COc1cc(O[C@@H](C)C(F)(F)F)c(F)cc1-n1c(=O)ccc2cc(S(=O)(=O)Nc3ccon3)c(F)cc21 (atropisomer, axis not shown; (P))
// query Form: Sort by [CYP3A4 mRNA Induct Hu 2 uM POC] Order [ ascending ] Output spec: labels arranged per the requested ranking.
// result II, I, III

A. COc1cc(OC(F)(F)F)c(F)cc1-n1c(=O)ccc2cc(S(=O)(=O)Nc3ccon3)ccc21 (atropisomer, axis not shown; (P))
B. COc1cc(OCCC(F)(F)F)c(F)cc1-n1c(=O)ccc2cc(S(=O)(=O)Nc3ccon3)c(F)cc21 (atropisomer, axis not shown; (P))
// query Lab note: check whether A or B shows the higher recorded CYP3A4 mRNA Induct Hu 2 uM POC. I would appreciate it if you answered with the label of your choice.
// result B
(B: 14.8%, A: 7.8%)
